Reference source: BigSolDB 2.1

Details: in NMP, 293.2 K
measured-property: solubility (mole fraction)
Respond using a number only.

Short answer for CC(=O)N1CCN(c2ccc(OC[C@@H]3CO[C@@](Cn4ccnc4)(c4ccc(Cl)cc4Cl)O3)cc2)CC1 (racemic) : solubility (mole fraction) was 0.019

====

Details: in water, 300.75 K
measured-property: solubility (mole fraction)
Respond using a number only.

Short answer for CS(=O)(=O)c1ccc([C@@H](O)[C@@H](CF)NC(=O)C(Cl)Cl)cc1 : solubility (mole fraction) was 8.19e-05

====

Settings: in methanol, 313.2 K
measured-property: solubility (mole fraction)

Short answer for NC(CO)(CO)CO : solubility (mole fraction) was 0.0158
